- system-under-test: TTBK2 (Homo sapiens)
- Construct: purchased Eurofins
- Sequence (Q6IQ55 whole entry): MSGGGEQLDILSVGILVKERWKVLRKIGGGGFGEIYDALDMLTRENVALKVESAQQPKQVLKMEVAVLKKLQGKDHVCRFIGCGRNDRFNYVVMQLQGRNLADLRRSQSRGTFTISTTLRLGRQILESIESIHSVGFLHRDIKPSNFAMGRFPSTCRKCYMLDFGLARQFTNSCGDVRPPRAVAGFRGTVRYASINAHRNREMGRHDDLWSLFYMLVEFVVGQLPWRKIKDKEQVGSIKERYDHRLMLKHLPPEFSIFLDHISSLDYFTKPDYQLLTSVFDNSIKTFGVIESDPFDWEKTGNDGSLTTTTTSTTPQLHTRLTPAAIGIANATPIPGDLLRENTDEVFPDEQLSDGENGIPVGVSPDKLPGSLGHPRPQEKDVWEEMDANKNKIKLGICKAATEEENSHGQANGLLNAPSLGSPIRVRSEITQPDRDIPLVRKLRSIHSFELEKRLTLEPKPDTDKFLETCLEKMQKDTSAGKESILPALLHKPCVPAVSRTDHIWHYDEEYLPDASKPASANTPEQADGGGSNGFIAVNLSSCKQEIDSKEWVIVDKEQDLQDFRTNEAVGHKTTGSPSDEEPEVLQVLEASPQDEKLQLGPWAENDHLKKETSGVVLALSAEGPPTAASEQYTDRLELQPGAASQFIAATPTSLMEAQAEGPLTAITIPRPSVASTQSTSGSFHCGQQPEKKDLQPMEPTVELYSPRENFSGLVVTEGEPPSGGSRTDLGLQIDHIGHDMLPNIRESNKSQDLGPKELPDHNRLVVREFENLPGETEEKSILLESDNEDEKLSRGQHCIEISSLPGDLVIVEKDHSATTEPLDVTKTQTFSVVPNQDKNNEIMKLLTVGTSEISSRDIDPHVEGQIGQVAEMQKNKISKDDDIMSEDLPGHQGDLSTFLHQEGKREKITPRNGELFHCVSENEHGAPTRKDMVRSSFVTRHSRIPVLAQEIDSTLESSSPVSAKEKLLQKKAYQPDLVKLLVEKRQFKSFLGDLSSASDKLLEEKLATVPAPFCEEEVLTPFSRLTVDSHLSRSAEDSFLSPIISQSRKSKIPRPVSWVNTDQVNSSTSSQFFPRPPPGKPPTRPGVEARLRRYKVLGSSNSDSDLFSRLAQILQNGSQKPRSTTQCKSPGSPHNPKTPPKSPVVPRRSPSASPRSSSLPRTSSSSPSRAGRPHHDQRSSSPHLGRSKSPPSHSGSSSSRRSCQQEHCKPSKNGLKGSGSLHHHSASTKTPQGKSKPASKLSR
- assay-procedure: Eurofins enzymatic radiometric kinase assay
- Type: biochemical
pIC50: −log10 of the molar value.
value-kind: pIC50

Enquiry: For the compound CC(C)(O)C#Cc1ccc2[nH]c3c(c2c1)-c1nc(N)ncc1CC3 [Compound 1] , give its reported pIC50.
Return: < 6.00

---

- system-under-test: NLuc-TTBK1 (Homo sapiens, UniProt Q5TCY1)
- Construct: host or cells: HEK293
- Sequence (Q5TCY1 whole entry): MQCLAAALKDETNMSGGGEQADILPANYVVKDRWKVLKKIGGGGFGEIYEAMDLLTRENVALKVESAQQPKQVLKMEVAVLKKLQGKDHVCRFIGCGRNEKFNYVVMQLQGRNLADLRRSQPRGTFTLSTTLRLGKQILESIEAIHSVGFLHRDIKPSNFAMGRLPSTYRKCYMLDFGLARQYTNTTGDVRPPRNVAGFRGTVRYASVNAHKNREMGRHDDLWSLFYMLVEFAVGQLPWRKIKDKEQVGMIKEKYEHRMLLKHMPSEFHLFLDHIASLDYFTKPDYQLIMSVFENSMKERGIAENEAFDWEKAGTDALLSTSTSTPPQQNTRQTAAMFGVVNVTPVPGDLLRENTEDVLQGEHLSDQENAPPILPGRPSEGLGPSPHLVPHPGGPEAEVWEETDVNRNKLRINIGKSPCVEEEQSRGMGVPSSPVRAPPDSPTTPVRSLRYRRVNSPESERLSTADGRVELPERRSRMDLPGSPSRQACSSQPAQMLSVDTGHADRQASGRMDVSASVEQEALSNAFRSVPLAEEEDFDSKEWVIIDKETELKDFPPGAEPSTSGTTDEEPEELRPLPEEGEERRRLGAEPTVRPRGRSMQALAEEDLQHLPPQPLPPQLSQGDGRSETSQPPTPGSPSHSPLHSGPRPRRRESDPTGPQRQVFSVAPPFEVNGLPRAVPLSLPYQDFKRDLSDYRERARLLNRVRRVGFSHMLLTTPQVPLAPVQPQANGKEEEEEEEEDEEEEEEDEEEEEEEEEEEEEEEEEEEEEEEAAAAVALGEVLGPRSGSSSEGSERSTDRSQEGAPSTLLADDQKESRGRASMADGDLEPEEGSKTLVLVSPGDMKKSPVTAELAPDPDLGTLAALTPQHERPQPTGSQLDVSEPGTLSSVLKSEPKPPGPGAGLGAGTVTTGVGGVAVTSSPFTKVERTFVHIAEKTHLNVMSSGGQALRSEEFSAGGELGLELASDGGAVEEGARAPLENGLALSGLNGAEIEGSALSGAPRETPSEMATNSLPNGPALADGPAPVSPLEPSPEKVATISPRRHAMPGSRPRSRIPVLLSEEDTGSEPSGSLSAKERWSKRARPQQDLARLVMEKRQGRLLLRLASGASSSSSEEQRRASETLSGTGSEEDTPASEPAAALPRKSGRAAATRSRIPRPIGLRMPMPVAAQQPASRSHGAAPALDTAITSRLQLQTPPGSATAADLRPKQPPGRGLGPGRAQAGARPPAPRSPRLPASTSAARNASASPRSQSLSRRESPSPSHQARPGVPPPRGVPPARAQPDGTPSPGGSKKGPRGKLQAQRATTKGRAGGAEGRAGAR
- assay-procedure: TTBK1 NanoBRET cellular target engagement assay in HEK293 cells
- Format: cell-based
- experimental-context: permeabilized HEK293 cells (digitonin), 2 μM tracer 29; read-out: TTBK1 permeabilized cell NB IC50
value-kind: pIC50
# pIC50 is unitless: minus log10 of the molar concentration; print number only

Enquiry: Answer with the recorded pIC50 for the compound listed here: "CC(C)(O)C#Cc1ccc2[nH]c3c(c2c1)-c1nc(N)ncc1CCCC3"
Return: 4.72

Enquiry: Write down pIC50 measured for item "CC(C)(O)C#Cc1ccc2[nH]c3c(c2c1)-c1nc(N)ncc1CC3"
Return: 5.60

---

Please go through the items and note down their TSSK1 PoC at 1 μM.
- system-under-test: TSSK1 (Homo sapiens)
- Construct: purchased Eurofins (radiometric) / Eurofins DiscoverX scanMAX / Reaction Biology / SignalChem
- Sequence (Q9BXA7 whole entry): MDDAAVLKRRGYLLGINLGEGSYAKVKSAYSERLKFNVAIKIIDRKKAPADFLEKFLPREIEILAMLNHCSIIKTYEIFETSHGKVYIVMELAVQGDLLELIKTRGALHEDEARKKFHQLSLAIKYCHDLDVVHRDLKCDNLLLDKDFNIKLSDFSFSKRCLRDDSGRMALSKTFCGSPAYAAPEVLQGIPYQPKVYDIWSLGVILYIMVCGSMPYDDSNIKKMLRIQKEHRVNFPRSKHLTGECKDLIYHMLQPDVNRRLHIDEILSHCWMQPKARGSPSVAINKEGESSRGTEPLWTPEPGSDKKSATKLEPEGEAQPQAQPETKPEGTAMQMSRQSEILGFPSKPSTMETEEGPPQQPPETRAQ
- assay-procedure: Eurofins enzymatic radiometric kinase assay
- Assay type: biochemical
- experimental-context: ATP at Km, duplicate
Please state the value followed by its unit.

Enquiry: Specify TSSK1 PoC at 1 μM for "CC(C)(O)C#Cc1ccc2[nH]c3c(c2c1)-c1nc(N)ncc1CC3" , system TSSK1 (Homo sapiens).
Return: 48 PoC

Enquiry: With TSSK1 (Homo sapiens) as the test system, provide measured TSSK1 PoC at 1 μM for this compound: "COC(C)(C)C#Cc1ccc2[nH]c3c(c2c1)-c1nc(N)ncc1CCC3"
Return: 89 PoC

Enquiry: Return reported TSSK1 PoC at 1 μM for target or system TSSK1 (Homo sapiens), item CC(C)(O)C#Cc1ccc2[nH]c3c(c2c1)-c1nc(N)ncc1CCC3 [AMG28, reference compound] .
Return: 10 PoC

Enquiry: Please indicate recorded TSSK1 PoC at 1 μM of "CC(C)(O)C#Cc1ccc2[nH]c3c(c2c1)-c1nc(N)ncc1CCCC3" measured with TSSK1 (Homo sapiens).
Return: 82 PoC

Enquiry: Name the recorded TSSK1 PoC at 1 μM of "CC(C)(O)C#Cc1ccc2[nH]cc(-c3ccnc(N)n3)c2c1" , assay system TSSK1 (Homo sapiens).
Return: 30 PoC

---

- system-under-test: TAOK2 (Homo sapiens, UniProt Q9UL54)
- Construct: purchased Eurofins
- Sequence (Q9UL54 whole entry): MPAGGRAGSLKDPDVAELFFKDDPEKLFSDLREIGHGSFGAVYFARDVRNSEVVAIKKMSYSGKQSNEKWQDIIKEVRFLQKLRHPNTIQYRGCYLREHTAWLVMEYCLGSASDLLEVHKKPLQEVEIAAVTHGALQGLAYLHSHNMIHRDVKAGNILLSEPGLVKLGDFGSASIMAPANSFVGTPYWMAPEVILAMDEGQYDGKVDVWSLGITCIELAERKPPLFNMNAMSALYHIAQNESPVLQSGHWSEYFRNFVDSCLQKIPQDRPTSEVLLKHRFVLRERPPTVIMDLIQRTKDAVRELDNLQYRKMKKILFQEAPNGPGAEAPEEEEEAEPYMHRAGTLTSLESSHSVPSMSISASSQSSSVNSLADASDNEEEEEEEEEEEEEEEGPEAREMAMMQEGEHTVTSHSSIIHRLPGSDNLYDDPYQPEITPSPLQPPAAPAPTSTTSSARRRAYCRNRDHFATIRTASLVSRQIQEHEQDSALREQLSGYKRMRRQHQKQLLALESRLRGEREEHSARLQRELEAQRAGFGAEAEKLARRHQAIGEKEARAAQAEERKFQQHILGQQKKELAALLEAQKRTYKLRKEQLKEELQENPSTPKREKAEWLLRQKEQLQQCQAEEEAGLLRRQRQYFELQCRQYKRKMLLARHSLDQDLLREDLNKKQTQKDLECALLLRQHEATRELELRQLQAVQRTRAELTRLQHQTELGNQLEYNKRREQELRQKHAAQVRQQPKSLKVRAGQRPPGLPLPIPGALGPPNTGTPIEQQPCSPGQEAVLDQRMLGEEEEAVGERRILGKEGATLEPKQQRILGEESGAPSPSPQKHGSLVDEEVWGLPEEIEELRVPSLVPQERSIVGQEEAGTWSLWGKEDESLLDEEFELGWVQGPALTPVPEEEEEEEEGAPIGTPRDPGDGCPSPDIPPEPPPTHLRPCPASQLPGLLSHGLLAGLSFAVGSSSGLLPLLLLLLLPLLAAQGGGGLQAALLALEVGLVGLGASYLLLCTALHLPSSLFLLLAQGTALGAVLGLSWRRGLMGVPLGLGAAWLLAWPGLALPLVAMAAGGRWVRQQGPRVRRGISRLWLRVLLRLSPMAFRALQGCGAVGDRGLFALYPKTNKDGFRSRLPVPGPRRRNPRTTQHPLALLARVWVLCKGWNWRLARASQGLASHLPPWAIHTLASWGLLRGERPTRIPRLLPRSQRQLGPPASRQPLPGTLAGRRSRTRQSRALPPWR
- assay-procedure: Eurofins enzymatic radiometric kinase assay
- Assay type: biochemical
- experimental-context: ATP at Km, duplicate
Output condition met for records whose TAOK2 PoC at 1 μM is lower than 30 PoC, condition not met for records at or above 30 PoC.

Enquiry: Just wondering, is TAOK2 PoC at 1 μM of "CC(C)(O)C#Cc1ccc2[nH]c3c(c2c1)-c1nc(N)ncc1CC3" below 30 PoC?
Return: condition met

Enquiry: Hello, I'm reviewing records and need to know if TAOK2 PoC at 1 μM of "COC(C)(C)C#Cc1ccc2[nH]c3c(c2c1)-c1nc(N)ncc1CCC3" is below 30 PoC. Could you check?
Return: condition not met

Enquiry: State whether 30 PoC exceeds TAOK2 PoC at 1 μM recorded for "CC(C)(O)C#Cc1ccc2[nH]c3c(c2c1)-c1nc(N)ncc1CCCC3" .
Return: condition not met

Enquiry: Hello, is TAOK2 PoC at 1 μM of the following compound strictly smaller than 30 PoC? CC(C)(O)C#Cc1ccc2[nH]c3c(c2c1)-c1nc(N)ncc1CCC3 [AMG28, reference compound]
Return: condition met

Enquiry: Lab log: compare recorded TAOK2 PoC at 1 μM with 30 PoC; is it strictly lower for "CC(C)(O)C#Cc1ccc2[nH]cc(-c3ccnc(N)n3)c2c1" ?
Return: condition met
